Just for reference, paper PMC6614801 is where these values come from.

- system tested: T1, SuhB (inositol mono-phosphatase SuhB), wild type (E. coli, UniProt P0ADG4 1-267)
- T1 construct: Inositol mono-phosphatase SuhB of E. coli, PCR-amplified from E. coli (DH5α) genomic DNA, full length; Dimer by SEC-MALS and in both crystal structures; also called wt SuhB; SuhB^II; source: E. coli BL21(DE3)pLysS, purified (Ni-NTA, TEV digestion, SEC)
- T1 sequence (looked up): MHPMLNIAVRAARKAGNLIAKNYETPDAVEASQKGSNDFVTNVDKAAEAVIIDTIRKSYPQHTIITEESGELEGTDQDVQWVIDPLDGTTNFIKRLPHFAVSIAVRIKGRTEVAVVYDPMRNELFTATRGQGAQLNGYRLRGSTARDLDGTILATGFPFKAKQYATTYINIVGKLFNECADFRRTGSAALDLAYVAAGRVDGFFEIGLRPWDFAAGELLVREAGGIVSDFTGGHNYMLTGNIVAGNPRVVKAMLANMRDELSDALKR
- assay notes: SPR; Biacore, Sensor Chip NTA, 20°C; N-terminally His6-tagged NusA^AR2 immobilised; single cycle kinetics with SuhB variants at 25, 50, 100, 150 and 200 nM; 20 mM HEPES–NaOH pH 7.5, 50 mM NaCl, 1 mM DTT
- assay conditions: both partners purified
measured quantity: Kd

Query block: Consider the binder N-terminally His6-tagged NusA^AR2 (domain or fragment, E. coli, UniProt P0AFF6 427-495, looked up, C-terminal acidic repeat 2 (AR2) domain of E. coli NusA, residues 427–495; Same construct as m3, with the His6 tag kept for capture on the NTA chip in SPR; also called wt AR2; source: recombinant (pETM-11), purified via the same protocol as full-length NusA (19); not shown: His6, N-terminal, kept) DNKPADDLLNLEGVDRDLAFKLAARGVCTLEDLAEQGIDDLADIEGLTDEKAGALIMAARNICWFGDEA and give its recorded Kd.
Result block: 94 nM
